Test system: A673/TR/shEF
Assay: cell viability (LOESS-normalised, relative to median of negative controls) (log2 ratio); higher = more viable cells (less compound effect), active = hit call of the paper (over 3 MAD below the median)
Details: 0.25 µM; library screen: screen2; EWS-FLI1 expression: high (no doxycycline); treatment time: 72 h
About 300 (9.4%) of roughly 3,200 compounds showed activity. Shown is part of a subset that was picked to be rich in actives.
// reported cell viability (log2) for each item listed

# lookup: cell viability (log2) of CS(=O)(=O)Nc1ccc([N+](=O)[O-])cc1Oc1ccccc1 0.0788 (inactive)

# lookup: cell viability (log2) of C[C@@H](NC(=O)/C(C#N)=C/c1ccc(O)c(O)c1)c1ccccc1 0.139 (inactive)

# lookup: cell viability (log2) of N#C/C(=C\c1ccc(O)c(O)c1)C(=O)Nc1ccccc1 0.0861 (inactive)

Next:
# lookup: cell viability (log2) of C[C@H](NC(=O)/C(C#N)=C/c1ccc(O)c(O)c1)c1ccccc1 0.133 (inactive)

# lookup: cell viability (log2) of COc1ccc2c(c1)CC[C@@H]1[C@@H]2CC[C@]2(C)[C@@H](NCCCCCCN3C(=O)CCC3=O)CC[C@@H]12 0.149 (inactive)

# lookup: cell viability (log2) of N#C/C(=C\c1ccc(O)c(O)c1)C(=O)NCCc1ccccc1 0.142 (inactive)
